Where these numbers come from: patent US7767659B2

- System: IGROV-1
- method_summary: Inhibition of cells growth by colorimetric assay (SRB)
- condition_parameters: read-out: IGROV LC50; IGROV; SRB, 48 hours exposure
outcome_measure: CC50 (nM)
Just the number please, in nM, no unit attached.

Request: // returns reported CC50 for input COC1=C(C)C(=O)C2=C(C1=O)C1C3C4SCC(NC(C)=O)C(=O)OCC(c5c6c(c(C)c(OC(C)=O)c54)OCO6)N3C(O)C(C2)N1C (stereo not shown) [ET-637-quinone, ecteinascidin 637 quinone]
Result: 12.1

* * *

- Tested on: LoVo-Dox
- method_summary: Inhibition of cells growth by colorimetric assay (SRB)
- condition_parameters: read-out: LOVO-DOX LC50; LOVO-DOX; SRB, 48 hours exposure
outcome_measure: CC50 (nM)
Reply numerically in nM, unit not repeated.

Request: Consider the molecule shown here: COC1=C(C)C(=O)C2=C(C1=O)C1C3C4SCC(NC(C)=O)C(=O)OCC(c5c6c(c(C)c(OC(C)=O)c54)OCO6)N3C(O)C(C2)N1C (stereo not shown) What is its recorded CC50?
Result: 90

* * *

- Tested on: SK-MEL-28
- method_summary: Inhibition of cells growth by colorimetric assay (SRB)
- condition_parameters: Homo sapiens, SK-MEL-28, 48 h, read-out: MEL-28 GI50
Reported GI50 values for a set of compounds
Give just the number in nM; leave the unit off.

// below: answered compounds
| compound | study_system | GI50 (nM) |
| --- | --- | --- |
| COc1cc2c(cc1O)CCN[C@]21CS[C@@H]2c3c(OC(=O)/C=C/c4ccccc4)c(C)c4c(c3[C@H](COC1=O)N1C2[C@@H]2N[C@@H](Cc3cc(C)c(OC)c(O)c32)[C@@H]1O)OCO4 (some centres unmarked) | SK-MEL-28 | 2.21 |
| COc1c(C)cc2c(c1O)[C@H]1N[C@@H](C2)[C@H](C#N)N2C1[C@@H]1SC[C@]3(NCCc4c3[nH]c3ccc(O)cc43)C(=O)OC[C@H]2c2c3c(c(C)c(OC(C)=O)c21)OCO3 (some centres unmarked) | SK-MEL-28 | 6.19 |
| C=CCN1[C@@H]2c3c(cc(C)c(OC)c3O)C[C@H]1[C@H](O)N1C2[C@@H]2SCC(NC(C)=O)C(=O)OC[C@H]1c1c3c(c(C)c(OC(C)=O)c12)OCO3 (some centres unmarked) | SK-MEL-28 | 33.7 |
| COc1ccc2[nH]c3c(c2c1)CCN[C@]31CS[C@@H]2c3c(OC(C)=O)c(C)c4c(c3[C@H](COC1=O)N1C2[C@@H]2N[C@@H](Cc3cc(C)c(OC)c(O)c32)[C@@H]1O)OCO4 (some centres unmarked) | SK-MEL-28 | 2.65 |
| COc1c(C)cc2c(c1OC(=O)/C=C/c1ccccc1)[C@H]1N[C@@H](C2)[C@H](O)N2C1[C@@H]1SCC(NC(=O)C(F)(F)F)C(=O)OC[C@H]2c2c3c(c(C)c(OC(C)=O)c21)OCO3 (some centres unmarked) | SK-MEL-28 | 162 |

Request: # get_value(readout='GI50', item= COc1c(C)cc2c(c1O)[C@H]1N[C@@H](C2)[C@H](O)N2C1[C@@H]1SC[C@]3(NCCc4c3[nH]c3ccccc43)C(=O)OC[C@H]2c2c3c(c(C)c(OC(C)=O)c21)OCO3 (some centres unmarked) )
Result: 5.64

Request: For COC1=C(C)C(=O)C2=C(C1=O)C1C3[C@@H]4SCC(=O)C(=O)OC[C@@H](c5c6c(c(C)c(OC(C)=O)c54)OCO6)N3[C@@H](O)[C@H](C2)N1C (some centres unmarked) , what is its reported GI50?
Result: 413

Request: Which GI50 reading was recorded for the compound C=CCN1[C@@H]2c3c(cc(C)c(OC)c3O)C[C@H]1[C@H](C#N)N1C2[C@@H]2SC[C@]3(NCCc4c3[nH]c3ccc(O)cc43)C(=O)OC[C@H]1c1c3c(c(C)c(OC(C)=O)c12)OCO3 (some centres unmarked) ?
Result: 29.3

Request: Endpoint output: GI50 of C=CCN1[C@@H]2c3c(cc(C)c(OC)c3O)C[C@H]1[C@H](C#N)N1C2[C@@H]2SC[C@]3(NCCc4c3[nH]c3ccc(OC)cc43)C(=O)OC[C@H]1c1c3c(c(C)c(OC(C)=O)c12)OCO3 (some centres unmarked) . Value?
Result: 26.3

Request: Fill blank: measured GI50 of the compound COc1c(C)cc2c(c1O)[C@H]1N[C@@H](C2)[C@H](O)N2C1[C@@H]1SCC(=O)C(=O)OC[C@H]2c2c3c(c(C)c(OC(C)=O)c21)OCO3 (some centres unmarked) is ____.
Result: 9.09

Request: Could you tell me which GI50 is on file for C=CCN1[C@@H]2c3c(cc(C)c(OC)c3OC(=O)OC(C)(C)C)C[C@H]1[C@H](C#N)N1C2[C@@H]2SC[C@]3(NCCc4cc(OC(=O)OC(C)(C)C)c(OC)cc43)C(=O)OC[C@H]1c1c3c(c(C)c(OC(C)=O)c12)OCO3 (some centres unmarked) ?
Result: 117

* * *

- System: LoVo-Dox
- method_summary: Inhibition of cells growth by colorimetric assay (SRB)
- condition_parameters: Homo sapiens, 48 h, read-out: GI50 LOVO-DOX
outcome_measure: GI50
Respond with a number, then the unit of measure.

Example entries begin here.
| molecule | study_system | GI50 |
| --- | --- | --- |
| COc1c(C)cc2c(c1O)[C@H]1N[C@@H](C2)[C@H](C#N)N2C1[C@@H]1SCC(NC(=O)C(F)(F)F)C(=O)OC[C@H]2c2c3c(c(C)c(OC(C)=O)c21)OCO3 (some centres unmarked) | LoVo-Dox | 0.00905 µM |
| C=CCN1[C@@H]2c3c(cc(C)c(OC)c3OC(=O)/C=C/c3ccccc3)C[C@H]1[C@H](C#N)N1C2[C@@H]2SCC(NC(=O)C(F)(F)F)C(=O)OC[C@H]1c1c3c(c(C)c(OC(C)=O)c12)OCO3 (some centres unmarked) | LoVo-Dox | 4.09 µM |
| C=CCN1[C@@H]2c3c(cc(C)c(OC)c3O)C[C@H]1[C@H](C#N)N1C2[C@@H]2SC[C@H](NC(=O)c3cc4ccccc4oc3=O)C(=O)OC[C@H]1c1c3c(c(C)c(OC(C)=O)c12)OCO3 (some centres unmarked) | LoVo-Dox | 0.362 µM |
| COc1c(C)cc2c(c1O)[C@@H]1C3[C@@H]4SC[C@]5(NCCc6c5[nH]c5ccccc65)C(=O)OC[C@@H](c5c6c(c(C)c(OC(C)=O)c54)OCO6)N3[C@@H](C#N)[C@H](C2)N1C (some centres unmarked) | LoVo-Dox | 0.0874 µM |

Next up:
Request: Hello, I am looking for reported GI50 with LoVo-Dox for COC1=C(C)C(=O)C2=C(C1=O)[C@@H]1C3[C@@H]4SC[C@]5(NCCc6c5[nH]c5ccccc65)C(=O)OC[C@@H](c5c6c(c(C)c(OC(C)=O)c54)OCO6)N3[C@@H](C#N)[C@H](C2)N1C (some centres unmarked) . Could you help?
Result: 0.661 µM

* * *

Let's look at some compounds and their measured IC (TGI).
- System: A-549
- method_summary: cells
- condition_parameters: Homo sapiens, A549, 48 h, read-out: TGI A549

Request: Fill blank: measured IC (TGI) of the compound C=CCOc1c(C)c2c(c3c1CC1[C@H]4c5c(cc(C)c(OC)c5OCOCCOC)C[C@@H]([C@H](C#N)N1[C@H]3CO[Si](c1ccccc1)(c1ccccc1)C(C)(C)C)N4C)OCO2 (stereo partly drawn) is ____.
Result: 8270 nM

Request: // query IC (TGI) value for entry C=CCOc1c(C)c2c(c3c1CC1[C@@H]4N[C@@H](Cc5cc(C)c(OC)c(OCOCCOC)c54)[C@H](C#N)N1[C@H]3CO[Si](c1ccccc1)(c1ccccc1)C(C)(C)C)OCO2 (stereo partly drawn)
Result: 2400 nM

Request: Need IC (TGI) of COc1c(C)cc2c(c1OC(=O)/C=C/c1ccccc1)[C@H]1N[C@@H](C2)[C@H](C#N)N2C1[C@@H]1SCC(NC(=O)C(F)(F)F)C(=O)OC[C@H]2c2c3c(c(C)c(OC(C)=O)c21)OCO3 (stereo partly drawn) , thanks.
Result: 184 nM

* * *

- Tested on: K-562
- method_summary: Inhibition of cells growth by colorimetric assay (SRB)
- condition_parameters: Homo sapiens, K562, 48 h, read-out: K562 GI50
outcome_measure: GI50 (µM)
Answer in µM, number only, no unit symbol.

Solved cases (5 shown):
| compound | study_system | outcome_measure | experimental_value |
| --- | --- | --- | --- |
| COC1=C(C)C(=O)C2=C(C1=O)C1C3[C@@H]4SCC(=O)C(=O)OC[C@@H](c5c6c(c(C)c(OC(C)=O)c54)OCO6)N3[C@@H](O)[C@H](C2)N1C (stereo partly shown) | K-562 | GI50 | 0.137 |
| COc1cc2c(cc1O)CCN[C@]21CS[C@@H]2c3c(O)c(C)c4c(c3[C@H](COC1=O)N1C2[C@@H]2N[C@@H](Cc3cc(C)c(OC)c(O)c32)[C@@H]1O)OCO4 (stereo partly shown) | K-562 | GI50 | 0.00265 |
| COc1c(C)cc2c(c1O)[C@H]1N[C@@H](C2)[C@H](O)N2C1[C@@H]1SCC(NC(C)=O)C(=O)OC[C@H]2c2c3c(c(C)c(OC(C)=O)c21)OCO3 (stereo partly shown) | K-562 | GI50 | 0.000246 |
| C=CCN1[C@@H]2c3c(cc(C)c(OC)c3O)C[C@H]1[C@H](O)N1C2[C@@H]2SC[C@]3(NCCc4cc(O)c(OC)cc43)C(=O)OC[C@H]1c1c3c(c(C)c(OC(C)=O)c12)OCO3 (stereo partly shown) | K-562 | GI50 | 0.0339 |
| COc1c(C)cc2c(c1OC(=O)/C=C/c1ccccc1)[C@H]1N[C@@H](C2)[C@H](O)N2C1[C@@H]1SCC(NC(=O)C(F)(F)F)C(=O)OC[C@H]2c2c3c(c(C)c(OC(C)=O)c21)OCO3 (stereo partly shown) | K-562 | GI50 | 0.0414 |

Request: GET /values?readout=GI50&system=K-562&item= CCCCCCCC(=O)Oc1c(C)c2c(c3c1[C@H]1SC[C@]4(NCCc5cc(O)c(OC)cc54)C(=O)OC[C@@H]3N3C1[C@@H]1N[C@@H](Cc4cc(C)c(OC)c(O)c41)[C@@H]3O)OCO2 (stereo partly shown)
Result: 0.00188

Request: What is its GI50 for K-562? Entry: C=CCN1[C@@H]2c3c(cc(C)c(OC)c3O)C[C@H]1[C@H](C#N)N1C2[C@@H]2SC[C@]3(NCCc4c3[nH]c3ccc(C)cc43)C(=O)OC[C@H]1c1c3c(c(C)c(OC(C)=O)c12)OCO3 (stereo partly shown)
Result: 0.0264
